# System: Candida tropicalis
# test.description: Antimicrobial activity against Candida tropicalis by micro-broth dilution method
# Format: functional
// values below are reported MIC80
Reply numerically in µg/mL, unit not repeated.

Look over these answered cases.
Task: Give MIC80 (Candida tropicalis) of the following molecule: CCCN(Cc1ccccc1)CC(O)(Cn1cncn1)c1ccc(F)cc1F (stereo not given)
Output: 0.0625

Task: Hi! What's the reported MIC80 for CC(=O)N1CCN(c2ccc(OCC3COC(Cn4ccnc4)(c4ccc(Cl)cc4Cl)O3)cc2)CC1 (stereo not given) on Candida tropicalis?
Output: 0.0625

Task: Param readout = MIC80; param system = Candida tropicalis; param query = CC(C)N(Cc1cccc(F)c1)CC(O)(Cn1cncn1)c1ccc(F)cc1F (stereo not given) ; response: value
Output: 0.0625

Task: Please tell me: MIC80 of CCc1ccc(CN(CC(O)(Cn2cncn2)c2ccc(F)cc2F)C(C)C)cc1 (stereo not given) , system Candida tropicalis?
Output: 1

***
Task: // fetch Candida tropicalis MIC80 for CC(C)N(Cc1cccc(Cl)c1)CC(O)(Cn1cncn1)c1ccc(F)cc1F (stereo not given)
Output: 1
